system: RPMI-8226 cells; experiment: Cell viability, CellTiter-Glo, 72 h; assay type: cell-based, human; conditions: RPMI-8226, 72 h
observation.type: CC50 (µM)
Output spec: scalar in µM, unitless text.

Prompt: Give its CC50 value. Item: CCOC(=O)[C@]1(c2ccccc2)N=C(c2ccc(OC)cc2)N(Cc2ccccc2)[C@@H]1c1ccc(NCc2ccccc2)cc1
Response: 0.9
